These entries and their values trace back to patent US5710179A.

System: Meth A sarcoma
Protocol: Antitumor activity on mouse with carcinoma (Meth A sarcoma, i.p., 40 days)
Format: in vivo, BALB/c male mice
Condition Details: 0.05 μg/0.2 ml/mouse i.p. twice a week; 40 days; control 28.1 ± 0.2
Listed molecules paired with reported Average day surviving
Attribute Measured: Average day surviving (days)

| Molecule | Measured Result |
| --- | --- |
| CC(C)=CCc1cc(/C=C/C(=O)O)cc(CC=C(C)C)c1O [compound 1] | 37.3 |
| CC(C)=CCc1cc(/C=C/C(=O)O)cc(CC=C(C)C)c1O [compound 4] | 37.5 |
| CC(C)=CCc1cc(/C=C/C(=O)O)cc(CC=C(C)C)c1O [compound 2] | 38.1 |
| CC(C)=CCc1cc(/C=C/C(=O)O)cc(CC=C(C)C)c1O [compound 5] | 38.2 |
| CC(C)=CCc1cc(/C=C/C(=O)O)cc(CC=C(C)C)c1O [compound 3] | 38.9 |

====

Tested on: Meth A sarcoma
Protocol: Antitumor activity on mouse with carcinoma (Meth A sarcoma, i.p., 40 days)
Format: in vivo, BALB/c male mice
Condition Details: 0.05 μg/0.2 ml/mouse i.p. twice a week; group of 10; control 0
Listed compounds paired with reported Number surviving after 40 days

| Compound | Target Or Test System | Number surviving after 40 days |
| --- | --- | --- |
| CC(C)=CCc1cc(/C=C/C(=O)O)cc(CC=C(C)C)c1O [compound 1] | Meth A sarcoma | 7 |
| CC(C)=CCc1cc(/C=C/C(=O)O)cc(CC=C(C)C)c1O [compound 4] | Meth A sarcoma | 7 |
| CC(C)=CCc1cc(/C=C/C(=O)O)cc(CC=C(C)C)c1O [compound 3] | Meth A sarcoma | 8 |
| CC(C)=CCc1cc(/C=C/C(=O)O)cc(CC=C(C)C)c1O [compound 5] | Meth A sarcoma | 8 |
| CC(C)=CCc1cc(/C=C/C(=O)O)cc(CC=C(C)C)c1O [compound 2] | Meth A sarcoma | 8 |

====

Test system: Meth A sarcoma
Protocol: Antitumor activity on mouse with carcinoma (Meth A sarcoma, i.p., 40 days)
Format: in vivo, BALB/c male mice
Condition Details: 0.5 μg/0.2 ml/mouse i.p. twice a week; control 100; all marked * (significant, 5% level or lower vs control)
Description: About 1×10^6 cells/mouse of Meth A sarcoma was intraperitoneally injected into 8-week-old BALB/c male mice. […] Based on the data of the average day surviving (T) in the Groups of mice with the compounds 1-5 and the average day surviving (C) in the control group of mice, the prolongation percentage of life (T/C %) was calculated by the formula 1. […]

| Compound | Target Or Test System | Prolongation percentage of life (T/C %) |
| --- | --- | --- |
| CC(C)=CCc1cc(/C=C/C(=O)O)cc(CC=C(C)C)c1O [compound 3] | Meth A sarcoma | 138.8 |
| CC(C)=CCc1cc(/C=C/C(=O)O)cc(CC=C(C)C)c1O [compound 5] | Meth A sarcoma | 139.5 |
| CC(C)=CCc1cc(/C=C/C(=O)O)cc(CC=C(C)C)c1O [compound 1] | Meth A sarcoma | 141.6 |
| CC(C)=CCc1cc(/C=C/C(=O)O)cc(CC=C(C)C)c1O [compound 4] | Meth A sarcoma | 142.3 |
| CC(C)=CCc1cc(/C=C/C(=O)O)cc(CC=C(C)C)c1O [compound 2] | Meth A sarcoma | 142.3 |
